Could you please report measured cytotoxicity at 10 µM for the items listed next?
Assay: Toxicity liver stage against HepG2, at 10uM
Type: cell-based
Set-up: test concentration 10 uM, cell line HepG2-A16-CD81EGFP
Settings: human, HepG2-A16-CD81EGFP cells; read-out: INHIBITION
One number for each entry, in %.

// solved cases for cytotoxicity at 10 µM follow
# cytotoxicity at 10 µM (compound: COCCCOC1CN(C(=O)c2[nH]nc3c2CCCC3)C1 ) is 8.11

# cytotoxicity at 10 µM (compound: COCC(=O)N1CCCC1(C(=O)N(C)C)c1cnccn1 (stereo unspecified) ) is 3.96

# cytotoxicity at 10 µM (compound: c1cncc(COCc2n[nH]c3c2CN(Cc2ccco2)C3)c1 ) is 9.01

I would be grateful if you could provide cytotoxicity at 10 µM for each of the following entries.
1. O=C(C[C@@H]1COC[C@H]2CN(Cc3ccc(F)cc3)C[C@@H]12)N1CCCCO1
2. Cc1ccc(CN2C[C@H]3OC(=O)N(Cc4ccccn4)[C@H]3C2)o1
3. FC(F)c1nnc2ccc(N3CCC4(CCOC4)C3)nn12 (stereo unspecified)
4. OC1(CNCCc2nc(Cc3ccccc3)no2)CNCCOC1 (stereo unspecified)
5. O=C(NCc1cccs1)c1nc2c(o1)CN(C(=O)c1cccnc1)C2
6. CC(=O)N1Cc2ccccc2CC1C(=O)Nc1cc(C)ccn1 (stereo unspecified)
7. Cc1cccc(C(=O)N2CCN(S(C)(=O)=O)[C@@H]3CS(=O)(=O)C[C@@H]32)n1
8. CC(C(=O)NCc1ccnc(N2CCOCC2)c1)n1cccn1 (stereo unspecified)

a:
[-2.26, 4.16, 9.2, 4.43, -6.04, -4.5, 4.01, -6.28]
